System: MIA PaCa-2
assay: Induction of reactive oxygen species generation in human MIA PaCa-2 cells assessed as ROS level at 50 uM measured after 12 hrs by DCF-DA staining based flow cytometry (reference value: 461.5 +/- 57.3)
Assay type: functional
Binning rule for recorded Activity: lo = under 600, med = from 600 up to 700, hi = 700 and over

Assign a bin to `COc1ccc(C(=O)/C=C/c2cn(-c3ccc(OC)cc3)nc2-c2ccc(-c3ccccc3)cc2)cc1` hi

Kindly state the category for this compound: `O=C(/C=C/c1cn(-c2ccccc2)nc1-c1ccc(-c2ccccc2)cc1)c1cc(F)ccc1O` lo

Please indicate the class for `CC1=CC(=O)c2ccccc2C1=O` based on its Activity. hi

Category lookup for the compound `COc1ccc(C(=O)/C=C/c2cn(-c3ccc(F)cc3)nc2-c2ccc(-c3ccccc3)cc2)cc1OC` lo

Lab note: sort `COc1cccc(C(=O)/C=C/c2cn(-c3ccc(F)cc3)nc2-c2ccc(-c3ccccc3)cc2)c1` into the matching Activity band. med

The entry to classify is `COc1ccccc1C(=O)/C=C/c1cn(-c2ccccc2)nc1-c1ccc(-c2ccccc2)cc1` ; which class holds it? med

Class (by measured Activity) for `COc1cccc(O)c1C(=O)/C=C/c1cn(-c2ccccc2)nc1-c1ccc(-c2ccccc2)cc1` lo

Just checking, what class would you give `O=C(/C=C/c1cn(-c2ccccc2)nc1-c1ccc(-c2ccccc2)cc1)c1ccc(O)cc1` here? med

Assign a bin to `COc1ccc(-n2cc(/C=C/C(=O)c3ccccc3OC)c(-c3ccc(-c4ccccc4)cc3)n2)cc1` lo

For the record `COc1ccc(C(=O)/C=C/c2cn(-c3ccc(F)cc3)nc2-c2ccc(-c3ccccc3)cc2)cc1` , report the class its Activity corresponds to. lo

Band of `O=C(/C=C/c1cn(-c2ccccc2)nc1-c1ccc(-c2ccccc2)cc1)c1cc(Cl)ccc1O` ? med
